Molecular target: Epidermal growth factor receptor (Homo sapiens, UniProt P00533, L858R/T790M)
Sequence (P00533 25-1210 T790M/L858R limits assumed): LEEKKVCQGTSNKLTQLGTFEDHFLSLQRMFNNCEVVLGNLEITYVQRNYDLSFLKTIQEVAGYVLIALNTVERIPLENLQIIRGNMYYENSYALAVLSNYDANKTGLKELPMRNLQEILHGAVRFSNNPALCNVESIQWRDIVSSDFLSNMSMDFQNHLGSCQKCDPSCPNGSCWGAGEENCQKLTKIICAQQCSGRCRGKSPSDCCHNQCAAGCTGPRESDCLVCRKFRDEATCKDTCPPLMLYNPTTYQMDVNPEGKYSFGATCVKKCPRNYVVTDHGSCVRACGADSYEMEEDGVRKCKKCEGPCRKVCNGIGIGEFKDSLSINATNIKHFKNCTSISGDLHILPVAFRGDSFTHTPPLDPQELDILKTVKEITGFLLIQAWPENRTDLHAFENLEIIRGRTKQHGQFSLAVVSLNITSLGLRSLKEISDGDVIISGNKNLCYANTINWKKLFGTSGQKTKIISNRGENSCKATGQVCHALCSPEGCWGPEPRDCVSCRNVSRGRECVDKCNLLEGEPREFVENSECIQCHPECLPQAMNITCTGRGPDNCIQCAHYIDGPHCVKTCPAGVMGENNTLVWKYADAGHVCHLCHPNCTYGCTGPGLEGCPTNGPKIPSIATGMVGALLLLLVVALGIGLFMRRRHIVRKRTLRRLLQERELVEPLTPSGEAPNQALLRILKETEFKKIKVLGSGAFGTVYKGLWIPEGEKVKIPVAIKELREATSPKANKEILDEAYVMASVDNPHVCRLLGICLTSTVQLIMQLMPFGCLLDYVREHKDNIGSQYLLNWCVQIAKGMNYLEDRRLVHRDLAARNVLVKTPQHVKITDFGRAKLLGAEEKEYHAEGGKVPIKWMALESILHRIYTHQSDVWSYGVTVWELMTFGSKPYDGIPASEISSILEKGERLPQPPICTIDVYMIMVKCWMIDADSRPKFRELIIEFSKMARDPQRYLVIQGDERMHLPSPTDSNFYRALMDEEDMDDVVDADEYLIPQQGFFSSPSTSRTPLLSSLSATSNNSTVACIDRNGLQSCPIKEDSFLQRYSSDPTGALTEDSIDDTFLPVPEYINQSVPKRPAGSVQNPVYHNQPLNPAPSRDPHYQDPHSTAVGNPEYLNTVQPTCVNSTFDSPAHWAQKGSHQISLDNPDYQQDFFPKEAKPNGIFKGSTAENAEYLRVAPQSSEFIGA
Experiment: Time-dependent irreversible inhibition of GST-tagged EGFR L858R/T790M mutant cytoplasmic domain (669 to 1210 residues) (unknown origin) assessed as apparent inactivation constant (Ki) incubated for 240 mins in presence of ATP by fluorescence based analysis
Conditions: read-out: Ki(app)
pKi: −log10 of the molar value.
Below, each entry is listed with its recorded pKi.

CHEMICAL_SMILES | TGT | pKi
C=CC(=O)Nc1ccc(OC)c(Nc2cc(-c3[nH]c(SC)nc3-c3cccc(NC(=O)c4ccccc4CN4Cc5ccccc5C4=O)c3)ccn2)c1 | Epidermal growth factor receptor (Homo sapiens, UniProt P00533, L858R/T790M) | 6.51
C=CC(=O)Nc1ccc(OC)c(Nc2cc(-c3[nH]c(SC)nc3-c3cccc(NC(=O)c4cccc(O)c4CN4Cc5ccccc5C4=O)c3)ccn2)c1 | Epidermal growth factor receptor (Homo sapiens, UniProt P00533, L858R/T790M) | 6.27
